Test system: HIV-2(ROD)
Assay: Inhibition of HIV-2 (ROD)-induced cytopathicity (giant cell formation) in CEM cells
Format: cell-based
Settings: read-out: EC50 HIV-2 (concentration required to inhibit HIV-induced giant cell formation by 50%); HIV-2, CEM cell cultures
Procedure: A variety of glycopeptide antibiotic derivatives of vancomycin, eremomycin and teicoplanin including their aglycon derivatives were evaluated for their inhibitory activity against HIV-1 (IIIB) and HIV-2(ROD) in CEM cell cultures.
Reported EC50 values are given for each entry in this list.
measure.name: EC50

>>> result("CCCCc1ccc(CNCc2c(O)cc3c(c2O)-c2cc(ccc2O)C2NC(=O)C4NC(=O)C(CC(N)=O)NC(=O)C(NC(=O)C(CC(C)C)NC)C(O)c5ccc(c(Cl)c5)Oc5cc4cc(c5OC4OC(CO)C(O)C(O)C4OC4CC(C)(N)C(O)C(C)O4)Oc4ccc(cc4)C(OC4CC(C)(N)C(O)C(C)O4)C(NC2=O)C(=O)NC3C(=O)NC)cc1 (stereo not drawn) [Compound 3]")
"20 µM"
>>> result("N[C@H]1C(=O)N[C@@H]2Cc3ccc(c(Cl)c3)Oc3cc4cc(c3O)Oc3ccc(cc3Cl)[C@@H](O)[C@@H]3NC(=O)[C@H](NC(=O)[C@@H]4NC(=O)[C@@H](NC2=O)c2cc(O)cc(c2)Oc2cc1ccc2O)c1ccc(O)c(c1)-c1c(O)cc(O)cc1[C@@H](C(=O)O)NC3=O [Compound 112, Teicoplanin aglycon]")
"20 µM"
>>> result("CCCCc1ccc(CNCC(=O)N2CCN(C(=O)C3NC(=O)C4NC(=O)C(NC(=O)C5NC(=O)C6NC(=O)C(Cc7ccc(c(Cl)c7)Oc7cc5cc(c7O)Oc5ccc(cc5Cl)C4O)NC(=O)C(N)c4ccc(O)c(c4)Oc4cc(O)cc6c4)c4ccc(O)c(c4)-c4c(O)cc(O)cc43)CC2)cc1 (stereo not drawn) [Compound 46]")
"7 µM"

* * *

Reported CC50 values are given for each entry in this list.
system: HEL cells; conditions: read-out: CC50 (HEL); HEL cells; anti-CMV table
measure.name: CC50 (µM)

>>> numeric_readout("CCCCOc1ccc(CN2CCN(C(=O)C3NC(=O)C4NC(=O)C(NC(=O)C5NC(=O)C6NC(=O)C(Cc7ccc(c(Cl)c7)Oc7cc5cc(c7O)Oc5ccc(cc5Cl)C4O)NC(=O)C(N)c4ccc(O)c(c4)Oc4cc(O)cc6c4)c4ccc(O)c(c4)-c4c(O)cc(O)cc43)CC2)cc1 (stereo not shown)")
44
>>> numeric_readout("CCCCCCCCCC[N+](C)(C)CCCNCc1c(O)cc2c(c1O)-c1cc(ccc1O)C1NC(=O)C3NC(=O)C4NC(=O)C(Cc5ccc(c(Cl)c5)Oc5cc3cc(c5O)Oc3ccc(cc3Cl)C(O)C(NC1=O)C(=O)NC2C(=O)NCCC[N+](C)(C)CCCCCCCCCC)NC(=O)C(N)c1ccc(O)c(c1)Oc1cc(O)cc4c1 (stereo not shown)")
43
>>> numeric_readout("CCCCCCCCCNCc1c(O)cc2c(c1O)-c1cc(ccc1O)C1NC(=O)C3NC(=O)C4NC(=O)C(Cc5ccc(c(Cl)c5)Oc5cc3cc(c5O)Oc3ccc(cc3Cl)C(O)C(NC1=O)C(=O)NC2C(=O)NCCCN(C)C)NC(=O)C(N)c1ccc(O)c(c1)Oc1cc(O)cc4c1 (stereo not shown)")
107
>>> numeric_readout("NC1C(=O)NC2Cc3ccc(c(Cl)c3)Oc3cc4cc(c3O)Oc3ccc(cc3Cl)C(O)C3NC(=O)C(NC(=O)C4NC(=O)C(NC2=O)c2cc(O)cc(c2)Oc2cc1ccc2O)c1ccc(O)c(c1)-c1c(O)cc(O)cc1C(C(=O)N1CCN(Cc2ccc(C=Cc4ccccc4)cc2)CC1)NC3=O (stereo not shown)")
44
>>> numeric_readout("CCCCCCCCCC[N+](C)(C)CCCNC(=O)C1NC(=O)C2NC(=O)C(NC(=O)C3NC(=O)C4NC(=O)C(Cc5ccc(c(Cl)c5)Oc5cc3cc(c5O)Oc3ccc(cc3Cl)C2O)NC(=O)C(N)c2ccc(O)c(c2)Oc2cc(O)cc4c2)c2ccc(O)c(c2)-c2c1cc(O)c(CN1CC[N+](C)(CCCCCCCCCC)CC1)c2O (stereo not shown)")
170

These measurements were taken from patent US20050250677A1.
